study_target: T1, human HER2 (human, UniProt P04626 23-1255)
T1 construct: also called hHER2
assay_summary: FACS CHO-HER2, 667 nM
So I've got a bunch of binders here, and I need their MCF values.

21B02 (VHH) VHH: EVQLVESGGGLVQPGGSLRLSCAASGFTFDYYTIGWFRQAPGKEREGVSCISSRDGDSYYADSVKGRFTISRDNAKNTAYLQMNSLKPEDTAVYYCAASASDYGLGLELFHDEYNYWGQGTQVTVSS
3610
04C07 (VHH, also called HER3MS04C07; HER3MS004C07) VHH: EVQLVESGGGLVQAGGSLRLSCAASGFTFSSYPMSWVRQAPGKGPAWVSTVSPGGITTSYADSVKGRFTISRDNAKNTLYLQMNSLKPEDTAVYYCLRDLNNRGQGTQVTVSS
79
18B05 (VHH) VHH: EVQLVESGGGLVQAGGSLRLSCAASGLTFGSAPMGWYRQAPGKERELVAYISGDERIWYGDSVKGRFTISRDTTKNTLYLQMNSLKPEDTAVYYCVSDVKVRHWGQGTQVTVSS
63
23F05 (VHH) VHH: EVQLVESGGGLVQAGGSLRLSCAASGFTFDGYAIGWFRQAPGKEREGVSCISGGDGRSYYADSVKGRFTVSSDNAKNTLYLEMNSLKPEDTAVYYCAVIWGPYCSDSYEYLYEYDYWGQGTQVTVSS
264

Kindly consider the entry below.
Bench note: what MCF did 17E08 (VHH) VHH: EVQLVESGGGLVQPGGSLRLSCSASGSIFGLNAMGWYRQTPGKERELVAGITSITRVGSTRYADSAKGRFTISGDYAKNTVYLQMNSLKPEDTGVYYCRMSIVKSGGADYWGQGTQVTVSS show?
51
